- Tested on: Alpha-1B adrenergic receptor (Homo sapiens, UniProt P35368)
- Sequence (P35368 whole entry): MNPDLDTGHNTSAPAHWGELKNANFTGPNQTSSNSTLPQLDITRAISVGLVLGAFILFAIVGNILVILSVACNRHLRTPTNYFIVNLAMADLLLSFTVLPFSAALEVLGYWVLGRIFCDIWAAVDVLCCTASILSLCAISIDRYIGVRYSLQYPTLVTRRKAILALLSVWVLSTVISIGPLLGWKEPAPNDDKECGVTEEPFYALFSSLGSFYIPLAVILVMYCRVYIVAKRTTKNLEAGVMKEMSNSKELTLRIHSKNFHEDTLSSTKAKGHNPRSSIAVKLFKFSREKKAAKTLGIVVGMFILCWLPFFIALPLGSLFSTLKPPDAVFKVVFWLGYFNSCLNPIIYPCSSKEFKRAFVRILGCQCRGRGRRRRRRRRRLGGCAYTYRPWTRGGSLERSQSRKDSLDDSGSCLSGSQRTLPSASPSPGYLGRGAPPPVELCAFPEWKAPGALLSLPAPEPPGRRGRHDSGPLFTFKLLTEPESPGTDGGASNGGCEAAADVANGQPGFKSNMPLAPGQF
- Test method notes: Antagonist activity at human alpha1B receptor transfected in HEK293 cells co-transfected with Galpha16 assessed as reduction in intracellular calcium release incubated for 40 mins by Fluo-4AM dye based fluorescence assay
Measured parameter: IC50

// solved cases for IC50 follow
{"Molecule smiles": "O=C(O)CCCc1cn(CCCCN2CCN(c3ccccc3Cl)CC2)c2ccccc12", "Measured parameter": "IC50", "Value": "> 1000 nM"}
{"Molecule smiles": "CCOc1ccccc1OCCN[C@H](C)Cc1ccc(OC)c(S(N)(=O)=O)c1", "Measured parameter": "IC50", "Value": "4.2 nM"}
{"Molecule smiles": "COc1ccccc1N1CCN(CCCn2cc(CCCC(=O)O)c3ccccc32)CC1", "Measured parameter": "IC50", "Value": "> 1000 nM"}
{"Molecule smiles": "COc1ccccc1N1CCN(CCCCCn2cc(CCCC(=O)O)c3ccccc32)CC1", "Measured parameter": "IC50", "Value": "9.8 nM"}
{"Molecule smiles": "COc1ccccc1N1CCN(CCCCn2cc(CCCC(=O)O)c3ccccc32)CC1", "Measured parameter": "IC50", "Value": "> 1000 nM"}

Attention now shifts to the item below.
IN: // lookup IC50 for O=C(O)CCCc1cn(CCCCCN2CCN(c3ccccc3Cl)CC2)c2ccccc12
OUT: > 1000 nM
